This listing pairs compounds with measured inhibition rate, Barnyardgrass Root.
Tested on: Barnyardgrass
Test: Culture dish method (general screening)
Type: in vivo, barnyard grass
Conditions: 100 mg/L; 7 days; root

{"compound": "CON=C(C(=O)OC)c1ccccc1COc1ccc(-c2cccc(C)n2)cc1", "inhibition rate, Barnyardgrass Root (%)": 60}
{"compound": "CON=C(C(=O)OC)c1ccccc1COc1cccc(-c2nc(Cl)c(Cl)cc2Cl)c1", "inhibition rate, Barnyardgrass Root (%)": 50}
{"compound": "CON=C(C(=O)OC)c1ccccc1COc1cccc(-c2c(Cl)cncc2Cl)c1", "inhibition rate, Barnyardgrass Root (%)": 0}
{"compound": "CON=C(C(=O)OC)c1ccccc1COc1cccc(-c2ncc(C(F)(F)F)cc2Cl)c1", "inhibition rate, Barnyardgrass Root (%)": 100}
{"compound": "CON=C(C(=O)OC)c1ccccc1COc1ccc(-c2ncc(Cl)cc2Cl)cc1", "inhibition rate, Barnyardgrass Root (%)": 100}
{"compound": "CON=C(C(=O)OC)c1ccccc1COc1cccc(-c2cccc(C)n2)c1", "inhibition rate, Barnyardgrass Root (%)": 80}
{"compound": "CON=C(C(=O)OC)c1ccccc1COc1ccc(-c2ccccn2)cc1", "inhibition rate, Barnyardgrass Root (%)": 50}
{"compound": "CON=C(C(=O)OC)c1ccccc1COc1cc(-c2ccccn2)ccc1C(F)(F)F", "inhibition rate, Barnyardgrass Root (%)": 0}
{"compound": "CON=C(C(=O)OC)c1ccccc1COc1cccc(-c2ccnc(Cl)c2)c1", "inhibition rate, Barnyardgrass Root (%)": 50}
{"compound": "COc1cc(OC)nc(Oc2ccccc2CNc2ccc(C(=O)OC(C)C)cc2)n1 [Pyribambenz isopropyl, reference compound]", "inhibition rate, Barnyardgrass Root (%)": 100}
{"compound": "CON=C(C(=O)OC)c1ccccc1COc1ccc(-c2ccnc(Cl)c2)cc1", "inhibition rate, Barnyardgrass Root (%)": 30}
{"compound": "CON=C(C(=O)OC)c1ccccc1COc1cccc(-c2ncc(Cl)cc2Cl)c1", "inhibition rate, Barnyardgrass Root (%)": 60}
{"compound": "CON=C(C(=O)OC)c1ccccc1COc1cccc(-c2ccc(Cl)cn2)c1", "inhibition rate, Barnyardgrass Root (%)": 70}
{"compound": "CON=C(C(=O)OC)c1ccccc1COc1cccc(-c2ncc(Br)cc2[N+](=O)[O-])c1", "inhibition rate, Barnyardgrass Root (%)": 0}
{"compound": "CON=C(C(=O)OC)c1ccccc1COc1ccc(-c2ccc(Cl)cn2)cc1", "inhibition rate, Barnyardgrass Root (%)": 60}
{"compound": "CON=C(C(=O)OC)c1ccccc1COc1cccc(-c2ncccc2C)c1", "inhibition rate, Barnyardgrass Root (%)": 80}
{"compound": "CON=C(C(=O)OC)c1ccccc1COc1cccc(-c2ccccn2)c1", "inhibition rate, Barnyardgrass Root (%)": 30}
{"compound": "CON=C(C(=O)OC)c1ccccc1COc1cccc(-c2cc(C)ccn2)c1", "inhibition rate, Barnyardgrass Root (%)": 80}
{"compound": "CON=C(C(=O)OC)c1ccccc1COc1ccc(-c2ccc(C(F)(F)F)cn2)cc1", "inhibition rate, Barnyardgrass Root (%)": 0}

---

Test system: Barnyardgrass
Test: Culture dish method (general screening)
Format: in vivo, barnyard grass
Conditions: 100 mg/L; 7 days; stem
Reported inhibition rate, Barnyardgrass Stem values are given for each entry in this list.

{"compound": "CON=C(C(=O)OC)c1ccccc1COc1cccc(-c2ncc(Br)cc2[N+](=O)[O-])c1", "inhibition rate, Barnyardgrass Stem / %": 0}
{"compound": "CON=C(C(=O)OC)c1ccccc1COc1cccc(-c2cccc(C)n2)c1", "inhibition rate, Barnyardgrass Stem / %": 0}
{"compound": "COc1cc(OC)nc(Oc2ccccc2CNc2ccc(C(=O)OC(C)C)cc2)n1 [Pyribambenz isopropyl, reference compound]", "inhibition rate, Barnyardgrass Stem / %": 95}
{"compound": "CON=C(C(=O)OC)c1ccccc1COc1cccc(-c2c(Cl)cncc2Cl)c1", "inhibition rate, Barnyardgrass Stem / %": 0}
{"compound": "CON=C(C(=O)OC)c1ccccc1COc1cccc(-c2nc(Cl)c(Cl)cc2Cl)c1", "inhibition rate, Barnyardgrass Stem / %": 0}
{"compound": "CON=C(C(=O)OC)c1ccccc1COc1ccc(-c2ccnc(Cl)c2)cc1", "inhibition rate, Barnyardgrass Stem / %": 30}
{"compound": "CON=C(C(=O)OC)c1ccccc1COc1ccc(-c2ccc(Cl)cn2)cc1", "inhibition rate, Barnyardgrass Stem / %": 30}
{"compound": "CON=C(C(=O)OC)c1ccccc1COc1cccc(-c2ncc(C(F)(F)F)cc2Cl)c1", "inhibition rate, Barnyardgrass Stem / %": 95}
{"compound": "CON=C(C(=O)OC)c1ccccc1COc1cccc(-c2ncccc2C)c1", "inhibition rate, Barnyardgrass Stem / %": 0}
{"compound": "CON=C(C(=O)OC)c1ccccc1COc1cccc(-c2ncc(Cl)cc2Cl)c1", "inhibition rate, Barnyardgrass Stem / %": 20}
{"compound": "CON=C(C(=O)OC)c1ccccc1COc1cccc(-c2ccc(Cl)cn2)c1", "inhibition rate, Barnyardgrass Stem / %": 30}
{"compound": "CON=C(C(=O)OC)c1ccccc1COc1cccc(-c2ccnc(Cl)c2)c1", "inhibition rate, Barnyardgrass Stem / %": 0}
{"compound": "CON=C(C(=O)OC)c1ccccc1COc1cccc(-c2ccccn2)c1", "inhibition rate, Barnyardgrass Stem / %": 30}
{"compound": "CON=C(C(=O)OC)c1ccccc1COc1cccc(-c2cc(C)ccn2)c1", "inhibition rate, Barnyardgrass Stem / %": 0}
{"compound": "CON=C(C(=O)OC)c1ccccc1COc1ccc(-c2ccc(C(F)(F)F)cn2)cc1", "inhibition rate, Barnyardgrass Stem / %": 0}
{"compound": "CON=C(C(=O)OC)c1ccccc1COc1cc(-c2ccccn2)ccc1C(F)(F)F", "inhibition rate, Barnyardgrass Stem / %": 0}
{"compound": "CON=C(C(=O)OC)c1ccccc1COc1ccc(-c2cccc(C)n2)cc1", "inhibition rate, Barnyardgrass Stem / %": 20}
{"compound": "CON=C(C(=O)OC)c1ccccc1COc1ccc(-c2ccccn2)cc1", "inhibition rate, Barnyardgrass Stem / %": 20}
{"compound": "CON=C(C(=O)OC)c1ccccc1COc1ccc(-c2ncc(Cl)cc2Cl)cc1", "inhibition rate, Barnyardgrass Stem / %": 100}

---

Test system: Radish
Assay: Culture dish method (general screening)
Assay type: in vivo
Conditions: 100 mg/L; 7 days; stem
Listing of recorded inhibition rate, Radish Stem by entry.

{"smiles.str": "CON=C(C(=O)OC)c1ccccc1COc1ccc(-c2ccc(Cl)cn2)cc1", "tgt": "Radish", "unit.tag": "%", "inhibition rate, Radish Stem": 20}
{"smiles.str": "CON=C(C(=O)OC)c1ccccc1COc1cccc(-c2c(Cl)cncc2Cl)c1", "tgt": "Radish", "unit.tag": "%", "inhibition rate, Radish Stem": 0}
{"smiles.str": "CON=C(C(=O)OC)c1ccccc1COc1ccc(-c2ccccn2)cc1", "tgt": "Radish", "unit.tag": "%", "inhibition rate, Radish Stem": 0}
{"smiles.str": "CON=C(C(=O)OC)c1ccccc1COc1cccc(-c2ccnc(Cl)c2)c1", "tgt": "Radish", "unit.tag": "%", "inhibition rate, Radish Stem": 50}
{"smiles.str": "CON=C(C(=O)OC)c1ccccc1COc1cccc(-c2ncc(Cl)cc2Cl)c1", "tgt": "Radish", "unit.tag": "%", "inhibition rate, Radish Stem": 80}
{"smiles.str": "CON=C(C(=O)OC)c1ccccc1COc1cccc(-c2cc(C)ccn2)c1", "tgt": "Radish", "unit.tag": "%", "inhibition rate, Radish Stem": 0}
{"smiles.str": "CON=C(C(=O)OC)c1ccccc1COc1ccc(-c2cccc(C)n2)cc1", "tgt": "Radish", "unit.tag": "%", "inhibition rate, Radish Stem": 0}

---

Test system: Radish
Experiment: Culture dish method (general screening)
Assay type: in vivo
Conditions: 100 mg/L; 7 days; stem
Output class 1 for inhibition rate, Radish Stem not less than 50%; output class 0 otherwise.

{"molecule": "CON=C(C(=O)OC)c1ccccc1COc1cccc(-c2ccccn2)c1", "assigned.class": "class 0"}
{"molecule": "CON=C(C(=O)OC)c1ccccc1COc1cc(-c2ccccn2)ccc1C(F)(F)F", "assigned.class": "class 1"}
{"molecule": "COc1cc(OC)nc(Oc2ccccc2CNc2ccc(C(=O)OC(C)C)cc2)n1 [Pyribambenz isopropyl, reference compound]", "assigned.class": "class 1"}
{"molecule": "CON=C(C(=O)OC)c1ccccc1COc1ccc(-c2ncc(Cl)cc2Cl)cc1", "assigned.class": "class 1"}
{"molecule": "CON=C(C(=O)OC)c1ccccc1COc1cccc(-c2ccc(Cl)cn2)c1", "assigned.class": "class 1"}
{"molecule": "CON=C(C(=O)OC)c1ccccc1COc1cccc(-c2ncc(Br)cc2[N+](=O)[O-])c1", "assigned.class": "class 0"}

---

efficiency, Crabgrass values for the compounds below.
Tested on: Crabgrass
Test: Potted plants live body test
Assay type: in vivo
Settings: Pre-emergence soil treatment; 150 g a.i./ha; 30 days; Table 9

{"smiles.str": "CON=C(C(=O)OC)c1ccccc1COc1cccc(-c2ccc(Cl)cn2)c1", "efficiency, Crabgrass / %": 0}
{"smiles.str": "CON=C(C(=O)OC)c1ccccc1COc1cccc(-c2ncc(C(F)(F)F)cc2Cl)c1", "efficiency, Crabgrass / %": 80}
{"smiles.str": "CON=C(C(=O)OC)c1ccccc1COc1cccc(-c2ncc(Cl)cc2Cl)c1", "efficiency, Crabgrass / %": 0}
{"smiles.str": "CON=C(C(=O)OC)c1ccccc1COc1cccc(-c2ncccc2C)c1", "efficiency, Crabgrass / %": 0}
{"smiles.str": "CON=C(C(=O)OC)c1ccccc1COc1cc(-c2ccccn2)ccc1C(F)(F)F", "efficiency, Crabgrass / %": 0}
{"smiles.str": "CON=C(C(=O)OC)c1ccccc1COc1cccc(-c2nc(Cl)c(Cl)cc2Cl)c1", "efficiency, Crabgrass / %": 0}
{"smiles.str": "CON=C(C(=O)OC)c1ccccc1COc1ccc(-c2ncc(Cl)cc2Cl)cc1", "efficiency, Crabgrass / %": 50}
{"smiles.str": "CON=C(C(=O)OC)c1ccccc1COc1ccc(-c2cccc(C)n2)cc1", "efficiency, Crabgrass / %": 0}
{"smiles.str": "CON=C(C(=O)OC)c1ccccc1COc1ccc(-c2ccc(Cl)cn2)cc1", "efficiency, Crabgrass / %": 0}
{"smiles.str": "CON=C(C(=O)OC)c1ccccc1COc1cccc(-c2cccc(C)n2)c1", "efficiency, Crabgrass / %": 0}
